The values you see were collected from patent US8716221B2.

Please respond with reported 10 days Purity (%) for every item in the list.
assay_notes: Stability of Exendin-4 derivatives under basic conditions (PBS pH 7.4, 40° C., LC-MS purity)
Format: physicochemical
condition: 10 days
Where no end group is shown, it is not given here. [ ]: non-standard residue; d: D form. code ∗ = not defined here
// return the numeric value with its unit appended

// 10 days Purity (%) value for HdAEGTFTTSDL SKQNleEEEAVR LFIEWLKQGG PSSGAPPPC(AM) [Sample 9-2] : 98.7%

// 10 days Purity (%) value for HdAEGTFTTSDL SKQNleEEEAVR LFIEWLKQGG PSSGAPPPC-PEG40K [Sample 13] : 98.9%

// 10 days Purity (%) value for HdAEGTFTSDL SKQNleEEEAVR LFIEWLKQGG PSSGAPPPS-NH2 [Sample 3] : 98.5%

// 10 days Purity (%) value for HdAEGTFTSDL SKQMEEEAVR LFIEWLKNGG PSSGAPPPC-PEG40K [Sample 4] : 98.2%

// 10 days Purity (%) value for HGEGTFTSDLSKQMEEEAVRLFIEWLKQGGPSSGAPPPK* [Sample 5] : 94.2%

// 10 days Purity (%) value for HdAEGTFTSDL SKQMEEEAVR LFIEWLVKGG PSSGAPPPK* (H[dA]EGTFTSDLSKQMEEEAVRLFIEWLVKGGPSSGAPPPK(code ∗); reading uncertain; also: C-terminal modification (*)) [Sample 11] : 96.4%
